molecular target: Large T antigen (Simian virus 40); format: functional, Betapolyomavirus macacae;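 further: Confirmatory-stage PubChem screen for compounds that inhibit SV40 T antigen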
Sequence (P03070 whole entry): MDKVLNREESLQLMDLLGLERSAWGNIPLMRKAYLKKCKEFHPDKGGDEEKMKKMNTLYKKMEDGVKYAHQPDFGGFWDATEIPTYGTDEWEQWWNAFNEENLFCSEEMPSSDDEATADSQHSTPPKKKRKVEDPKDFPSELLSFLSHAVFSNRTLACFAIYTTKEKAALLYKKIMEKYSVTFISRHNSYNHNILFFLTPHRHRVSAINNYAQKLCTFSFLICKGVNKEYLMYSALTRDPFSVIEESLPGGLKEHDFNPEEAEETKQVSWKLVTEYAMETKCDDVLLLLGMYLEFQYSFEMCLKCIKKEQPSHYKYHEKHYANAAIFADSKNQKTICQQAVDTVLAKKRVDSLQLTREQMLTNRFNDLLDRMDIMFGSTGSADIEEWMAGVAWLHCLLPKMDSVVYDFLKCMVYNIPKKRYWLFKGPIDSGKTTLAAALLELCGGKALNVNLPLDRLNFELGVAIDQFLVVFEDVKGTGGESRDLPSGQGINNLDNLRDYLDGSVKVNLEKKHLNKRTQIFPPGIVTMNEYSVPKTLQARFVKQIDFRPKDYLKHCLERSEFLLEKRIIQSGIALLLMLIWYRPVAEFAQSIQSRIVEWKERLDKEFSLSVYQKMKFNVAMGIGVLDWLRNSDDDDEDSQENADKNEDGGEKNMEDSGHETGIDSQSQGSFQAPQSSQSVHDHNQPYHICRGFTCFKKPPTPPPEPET
The source made the active and inactive calls.
observation-type: IC50

Query string: Quick one: IC50 for `O=C1NC(=S)N(c2ccccc2F)C(=O)/C1=C/Nc1ccc(N2CCOCC2)cc1` ?
Result string: 4.54 µM (active)

Query string: Quick one: IC50 for `O=C(c1ccc2ncsc2c1)N1CCN(c2ccc(O)cc2)CC1` ?
Result string: 14.4 µM (active)

Query string: Quick one: IC50 for `O=C(N/N=C/c1ccc(O)c(O)c1)c1cccc(S(=O)(=O)N2CCCCC2)c1` ?
Result string: 4.75 µM (active)

====

Below, each entry is listed with its recorded IC50.
molecular target: UniProtKB Q9HD36; test: Bcl-B/TR3 peptide binding disruption – biochemical, fluorescence polarization, FITC-TR3 peptide, selectivity assay for Bfl-1 inhibitor project, primary screen (AID 748);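 further: fluorescence polarization from a fluorescein-labelled TR3 peptide binding purified Bcl-B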
Sequence (Q9HD36 whole entry): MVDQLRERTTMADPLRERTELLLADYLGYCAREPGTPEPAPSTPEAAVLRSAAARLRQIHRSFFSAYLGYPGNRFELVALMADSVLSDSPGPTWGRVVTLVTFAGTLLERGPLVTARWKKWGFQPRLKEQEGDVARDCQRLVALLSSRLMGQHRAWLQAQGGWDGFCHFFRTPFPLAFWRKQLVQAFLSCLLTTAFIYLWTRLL
The source made the active and inactive calls.

// known answers, use as guide
compound: CCCCNC(=O)COC(=O)c1ccc(Cl)c(S(=O)(=O)N2CCCC2)c1
IC50: > 100 µM (inactive)
--
compound: CCC(=O)Nc1cccc(NC(C)=O)c1
IC50: 56.6 µM (inactive)
--
compound: O=C1c2ccccc2C(=O)c2c1cccc2N1CCN(CCO)CC1
IC50: > 25 µM (inactive)
--
compound: CCn1c(CSc2nc3ccccc3s2)nnc1SCC(=O)c1ccc(O)c(O)c1
IC50: > 100 µM (inactive)

Query string: Param readout= IC50; system= UniProtKB Q9HD36; entry= CCS(=O)(=O)N1Cc2ccccc2CC1C(=O)N1CCN(c2cccc(C)c2C)CC1 (stereo not given) ; returns value.
Result string: 80 µM (inactive)
